For each of the binders below, state its kon.
Molecular target: T1, biotinylated recombinant cynomolgus monkey trimeric ARG2 enzyme (Avi-cynoARG2-His10) (cynomolgus monkey, UniProt P78540 23-354 (human entry), biotinylated)
T1 construct: also called cynomolgus ARG2
T1 chain: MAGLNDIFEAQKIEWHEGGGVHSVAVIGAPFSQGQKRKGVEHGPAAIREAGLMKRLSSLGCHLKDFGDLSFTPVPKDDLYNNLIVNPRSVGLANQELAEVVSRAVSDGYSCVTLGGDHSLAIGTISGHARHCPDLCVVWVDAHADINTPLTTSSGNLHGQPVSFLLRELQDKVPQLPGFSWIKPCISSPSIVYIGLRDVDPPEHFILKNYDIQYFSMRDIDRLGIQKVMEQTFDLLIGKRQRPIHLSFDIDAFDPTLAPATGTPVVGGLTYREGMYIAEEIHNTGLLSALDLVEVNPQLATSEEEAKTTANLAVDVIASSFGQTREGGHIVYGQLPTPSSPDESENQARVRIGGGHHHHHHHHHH
Assay: BLI (OctetRED), biotinylated cyno ARG2 on streptavidin, Fab as analyte
Numbers only, in M⁻¹ s⁻¹.

# batch: return kon for each of the 3 binders below
1. C0021139 Fab (Fab, V domains shown, Human Fab; also called LO C0021139 Fab) VH: EVQLLESGGGLVQPGGSLRLSCAASGFTFQYDYQVWVRQAPGKGLEWVSAISGSGGSTYYADSVKGRFTISRDNSKNTLYLQMNSLRAEDTAVYYCARLRADLGLYMDLWGRGTLVTVSS VL: QSVLTQPPSVSAAPGQKVTISCSGSSSNIGNHYVSWYQQLPGTAPKLLIYDNSERTSGIPDRFSGSKSGTSATLGITGLQTGDEADYYCGTWDELTSNLVFGGGTKLTVL
2. C0021022 Fab (Fab, V domains shown, Human Fab) VH: EVQLLESGGGLVQPGGSLRLSCAASGFTFSSYAMSWVRQAPGKGPEWVSAISGFSPYYADSVKGRFTISRDNSKNTLYLQMNSLRAEDTAVYYCARLRADLGLYMDLWGRGTLVTVSS VL: QSVLTQPPSVSAAPGQKVTISCSGSSSNIGNHYVSWYQQLPGTAPKLLIYDNSERPSGIPDRFSGSKSGTSATLGITGLQTGDEADYYCGTWDSSLSALVFGGGTKLTVL
3. C0021133 Fab (Fab, V domains shown, Human Fab) VH: EVQLLESGGGLVQPGGSLRLSCAASGFTFRYDHHVWVRQAPGKGLEWVSAISGSGGSTYYADSVKGRFTISRDNSKNTLYLQMNSLRAEDTAVYYCARLRADLGLYMDLWGRGTLVTVSS VL: QSVLTQPPSVSAAPGQKVTVSCSGSSSNIGNHYVSWYQQLPGTAPKLLIYDTTVLSSGIPDRFSGSKSGTSATLGITGLQTGDEADYYCGTWDELTSNLVFGGGTKLTVL

1. 275000
2. 706000
3. 328000
